Parameter: pKd. Scope: all listed entries.
target: BmrA (Bacillus subtilis, UniProt O06967, E504A); assay: biochemical
By convention, pKd is the negative base-10 log of a molar concentration.

CCOc1ccc(-c2nc3cc(-c4nc5cc(N6CCN(C)CC6)ccc5[nH]4)ccc3[nH]2)cc1 :: 5.02

Moving on to the next compound.
Problem: // Input: "COc1cccc2c1C(=O)c1c(O)c3c(c(O)c1C2=O)C[C@@](O)(C(=O)CO)C[C@@H]3O[C@H]1C[C@H](N)[C@H](O)[C@H](C)O1" . Output its pKd only.
Solution: 5.14

----------
biological target: BmrA (Bacillus subtilis, UniProt O06967, E504A); assay: biochemical
Measure: Kd (µM)
The answer is to be given in µM; state only the numeric part.

Problem: // Input: "Nc1ncnc2c1ncn2[C@@H]1O[C@H](COP(=O)(O)OP(=O)(O)OP(=O)(O)O)[C@@H](O)[C@H]1O" . Output its Kd only.
Solution: 154

Origin of values: paper PMC11836358
